parameter measured: melting point

In the examples that follow, each entry is paired with its recorded melting point.
CC(C)(C)[C@@H](CO)NC(=O)[C@@H](CC(=O)NO)n1cnc(-c2ccc(-c3ccccc3)cc2)c1 [Example 19(c)]; 157.5 to 160 °C
O=C(O)C[C@H](C(=O)N[C@H](CO)Cc1ccccc1)c1ccn(-c2ccc(-c3ccccc3)cc2)c1 [Example 13]; 151 to 154 °C
CNC(=O)[C@@H](NC(=O)[C@@H](CC(=O)O)n1ccc(-c2ccc(C#N)cc2)c1)C(C)(C)C [Example 1(m)]; 138 to 140 °C
CC(C)(C)[C@@H](CO)NC(=O)[C@@H](CC(=O)O)n1ccc(-c2ccc(-c3ccc(C(N)=O)cc3)cc2)c1 [Example 4(c)]; 192 to 194 °C
CNC(=O)[C@@H](NC(=O)C(CC(=O)O)n1cnc(-c2ccc(-c3ccccc3)cc2)c1)C(C)(C)C (mixture of isomers) [Example 18(c)]; 187 to 188.2 °C

Request the reported melting point associated with CC(C)(C)[C@@H](CO)NC(=O)C(CC(=O)O)n1cnc(-c2ccc(-c3ccccc3)cc2)c1 (mixture of isomers) [Example 18(b)]
145 to 150 °C

I am curious: what melting point value has been reported for CC(C)(C)[C@@H](CO)NC(=O)[C@@H](CC(=O)O)n1ccc(-c2ccc(-c3ccncc3)cc2)c1 [Example 5(a)] ?
192 to 194 °C

Record request: melting point value, item CC(C)(C)[C@H](NC(=O)[C@@H](CC(=O)O)n1ccc(-c2ccc(-c3ccc(C(N)=O)cc3)cc2)c1)C(=O)Nc1ccncc1 [Example 5(f)]
194 to 196 °C

Requested field: melting point. Item: CCCc1ccc(-c2ccn([C@H](CC(=O)O)C(=O)N[C@H](C(=O)NC)C(C)(C)C)c2)cc1 [Example 1(j)]
104 to 106 °C

---

Let's go through some log10(Ki) measurements on human collagenase-3 (Coll3) (Homo sapiens) together.
In plain terms, each number is the log10 of measured Ki in nM.

Sample answers from the record:
CC(C)(C)[C@@H](CO)NC(=O)[C@H](CC(=O)NO)n1cnc(-c2ccc(-c3ccccc3)cc2)c1; 1.63
CNC(=O)[C@@H](NC(=O)C(CC(=O)O)c1ccc(-c2ccc(-c3ccccc3)cc2)o1)C(C)(C)C (stereo partly shown); 3.01
CCCc1ccc(-c2ccn([C@H](CC(=O)O)C(=O)N[C@H](C(=O)NC)C(C)(C)C)c2)cc1; 0.97
CCC[C@H](C(=O)O)[C@H](C(=O)N[C@H](CO)Cc1ccccc1)n1ccc(-c2ccc(-c3ccccc3)cc2)c1; 1.70
O=C(O)C[C@H](C(=O)N[C@H]1Cc2cn(c3ccccc23)CCOCCNC1=O)n1ccc(-c2ccccc2)c1; -0.06
O=C(O)C[C@H](C(=O)N[C@H]1Cc2cn(c3ccccc23)CCOCCNC1=O)n1ccc(-c2ccc(-c3ccncc3)cc2)c1; -1.89

Switching to the query record.
What reported log10(Ki) corresponds to CCC[C@H](C(=O)O)[C@H](C(=O)N[C@H](CO)C(C)(C)C)n1ccc(-c2ccc(-c3ccc(C#N)cc3)cc2)c1 on human collagenase-3 (Coll3) (Homo sapiens)?
1.70

---

# target of assay: catalytic domain of human stromelysin (Hsln) (Homo sapiens)
# Construct: The catalytic domain of human stromelysin (Hsln) was obtained by expression and purification of a C-terminally truncated prostromelysin-1
# Sequence (P08254 100-272 limits assumed): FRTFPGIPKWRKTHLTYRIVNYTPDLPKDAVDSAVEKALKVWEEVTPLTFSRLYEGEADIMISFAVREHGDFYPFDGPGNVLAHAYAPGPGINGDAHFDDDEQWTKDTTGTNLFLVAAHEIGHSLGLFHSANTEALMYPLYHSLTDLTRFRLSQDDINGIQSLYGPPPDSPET
# procedure text: Fluorometric MCA-peptide hydrolysis assay, stromelysin (Hsln)
# study conditions: apparent Ki; 10 μM MCA peptide substrate, 37° C., pH 7.5; read-out: Hsln (Ki,app)
pKi: −log10 of the molar value.
Outcome: 1 for pKi of at least 7; 0 for anything lower.

Example entries begin here.
C=CC[C@H](C(=O)O)[C@H](C(=O)N[C@H](CO)C(C)(C)C)n1ccc(-c2ccc(-c3ccccc3)cc2)c1 [Example 12]; 0
COC(=O)c1ccc(NC(=O)[C@H](CC(C)C)NC(=O)[C@@H](CC(=O)O)c2cccs2)cc1 [Example 17(a)]; 0
CNC(=O)[C@@H](NC(=O)[C@@H](CC(=O)O)n1ccc(-c2ccc(C#N)cc2)c1)C(C)(C)C [Example 1(m)]; 1

# bool: pKi of CNC(=O)[C@@H](NC(=O)[C@@H](CC(=O)O)n1ccc(-c2ccccc2)c1)C(C)(C)C [1(b)] >= 7
0

# check: pKi of O=C(O)C(F)(F)F.O=C(O)C[C@H](C(=O)N[C@H](CO)Cc1c[nH]cn1)n1ccc(-c2ccc(-c3ccccc3)cc2)c1 [Example 1(g), Trifluoroacetate Salt] is greater than or equal to 7
1

Is reported pKi greater than or equal to 7 here: CNC(=O)[C@@H](NC(=O)C(CC(=O)O)n1cnc(-c2ccc(-c3ccccc3)cc2)c1)C(C)(C)C (mixture of isomers) [Example 18(c)]
0

Hi, just wondering whether CC(C)C[C@H](NC(=O)[C@@H](CC(=O)O)n1ccc(-c2ccc(-c3ccncc3)cc2)c1)c1ncc[nH]1.O=CO [Example 7(c), Formate Salt] shows pKi of 7 or higher.
1

---

# target of assay: catalytic domain of human stromelysin (Hsln) (Homo sapiens)
# Construct: The catalytic domain of human stromelysin (Hsln) was obtained by expression and purification of a C-terminally truncated prostromelysin-1
# procedure text: Fluorometric MCA-peptide hydrolysis assay, stromelysin (Hsln)
# study conditions: apparent Ki; 10 μM MCA peptide substrate, 37° C., pH 7.5; read-out: Hsln (Ki,app)
# Procedure: The catalytic domain of human stromelysin (Hsln) was obtained by expression and purification of a C-terminally truncated prostromelysin-1 from E. coli host BL21 (see Marcy et al. Biochem., 1991, 30, 6476). […] The assay method was based on the hydrolysis of MCA-Pro-Leu-Gly-Leu-DPA-Ala-Arg-NH2 (American Peptide Co.) at 37° C. […] The fluorescence changes were monitored with a Perkin-Elmer LS-50B fluorimeter using an excitation wavelength of 328 nm and an emission wavelength of 393 nm. […]
Reported Ki is given for each of the following compounds.
I only need the number, in nM, no unit after it.

CC(C)(C)[C@@H](CO)NC(=O)[C@H](CC(=O)NO)n1cnc(-c2ccc(-c3ccccc3)cc2)c1; 120

Entry under review: CC(=O)[C@H](CC(C)C)NC(=O)[C@@H](CC(=O)O)n1ccc(-c2ccc(-c3ccccc3)cc2)c1 . Reported Ki?
89

Bench note: what Ki did CNC(=O)[C@@H](NC(=O)C(CC(=O)O)c1ccc(-c2ccc(-c3ccccc3)cc2)o1)C(C)(C)C (stereo partly shown) show?
122

Find the recorded Ki belonging to CC(C)C[C@H](NC(=O)[C@@H](CC(=O)O)n1ccc(-c2ccc(-c3ccccc3)cc2)c1)C(C)O (mixture of isomers) and report it.
150
